Each recorded value in this set is attributed to patent US9527838B2.

tested_on: Recombinant human liver glucokinase (Homo sapiens (Human), UniProt P35557)
Sequence (P35557 other isoform, or with tags, fused parts or gaps): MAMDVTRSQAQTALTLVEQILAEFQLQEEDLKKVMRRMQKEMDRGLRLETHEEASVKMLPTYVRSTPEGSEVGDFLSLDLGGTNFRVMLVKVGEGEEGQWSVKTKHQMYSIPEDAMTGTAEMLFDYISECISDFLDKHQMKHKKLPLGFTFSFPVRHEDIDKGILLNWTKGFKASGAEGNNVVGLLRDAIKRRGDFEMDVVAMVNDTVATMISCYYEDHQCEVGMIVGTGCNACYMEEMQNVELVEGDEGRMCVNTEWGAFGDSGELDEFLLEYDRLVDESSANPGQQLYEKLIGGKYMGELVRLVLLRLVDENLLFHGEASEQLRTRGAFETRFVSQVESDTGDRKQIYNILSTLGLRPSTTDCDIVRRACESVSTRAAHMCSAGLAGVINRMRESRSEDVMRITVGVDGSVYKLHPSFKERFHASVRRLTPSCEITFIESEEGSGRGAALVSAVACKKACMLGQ
experiment_description: Glucokinase activation assay (G6PDH-coupled, Thio-NADH absorbance at 405 nm)
Type: biochemical
experimental_context: 2.5 mM Glu, 30° C.
assay_readout: EC50 (nM)
Report the figure in nM without appending any unit label.

Measured EC50 of CCOC(=O)CSc1cnc(NC(=O)c2nc(Sc3ccccn3)ccc2Sc2ccc(F)cc2)s1 : 83.8

Measured EC50 of CCOC(=O)Cc1nc(NC(=O)c2nc(Sc3nncn3C)ccc2Sc2ccc(Cl)c(Cl)c2)sc1Cl : 7.6

Measured EC50 of CCOC(=O)C(C)(C)CSc1cnc(NC(=O)c2nc(Sc3ccccn3)ccc2Sc2ccc(F)cc2)s1 : 129

Measured EC50 of COc1ccc(Sc2ccc(Sc3nncn3C)nc2C(=O)Nc2ncc(SC(C)(C)C(=O)O)s2)cc1 : 65.1

Measured EC50 of COc1ccc(Sc2ccc(Sc3ccccn3)nc2C(=O)Nc2nc(CC(=O)O)c(Cl)s2)cc1 : 9

Measured EC50 of Cn1cnnc1Sc1ccc(Sc2ccc(C(F)(F)F)cc2)c(C(=O)Nc2ncc(CCC(=O)O)s2)n1 : 173

Measured EC50 of CCOC(=O)Cc1nc(NC(=O)c2nc(Sc3ccccn3)ccc2Sc2ccc(OC)cc2)sc1Cl : 47.6
